Test system: Plasmodium falciparum
Assay: GSK_TCMDC: Inhibition of Plasmodium falciparum 3D7 in whole red blood cells, using parasite LDH activity as an index of growth. Test compounds present at 2uM
Format: functional
Assign Inhibition to each entry below.
Report as: number unit

Query for Plasmodium falciparum: what Inhibition does the record show for O=C(/C=C/c1ccc(Cl)c(Cl)c1)NC1CCC(CN2CCC(c3c[nH]c4ccccc34)CC2)CC1 (stereo not drawn) ?
100%

Repeat with CC(Cc1ccc(OCc2ccccc2)c(Cl)c1)NCC(O)c1cccc(C(F)(F)F)c1 (stereo not drawn)
97%

Repeat with CC(Cc1ccc(SC(C)C)cc1)NCC(O)c1cccc(Cl)c1.Cl (stereo not drawn)
99%

Repeat with COCC(=O)N(Cc1ccccc1-c1cccc(CNCCc2ccccc2)c1)C1CCN(Cc2ccccc2)CC1.O=C(O)C(F)(F)F
93%

Repeat with COCCNCc1cccc(-c2ccc(CN(C(=O)NC3CCCCC3)C3CCN(Cc4ccccc4)CC3)cc2)c1.O=C(O)C(F)(F)F
100%

Repeat with Cn1nc(C(F)(F)F)cc1-c1ccc(C(=O)NC2CCC(CN3CCC(c4c[nH]c5ccccc45)CC3)CC2)s1 (stereo not drawn)
100%

Repeat with O=C(NCc1ccccc1)c1nn(CCCN2CCC3(CC2)C(=O)NCN3c2ccccc2)cc1-c1ccc(Cl)c(Cl)c1
88%

Repeat with CC(=O)N(Cc1cccc(-c2cccc(CNCc3ccc4c(c3)OCO4)c2)c1)C1CCN(Cc2ccccc2)CC1.O=C(O)C(F)(F)F
95%

* * *

Tested on: Plasmodium falciparum
Test: GSK_TCMDC: Inhibition of Plasmodium falciparum 3D7 in whole red blood cells, using parasite LDH activity as an index of growth. Test compounds present at 2uM
Format: functional
READOUT_KIND: Inhibition (%)
Numeric only. Scale: %

Suppose we examine the compound CC(C)c1ccc(C=CC(=O)NC2CCC(CN3CCC(c4c[nH]c5ccccc45)CC3)CC2)cc1 (configuration not stated) ; what Inhibition value has been reported?
100

Repeat with CN(c1ccc(NC(=O)CCOc2ccccc2)cc1)C1CCN(Cc2cccc(O)c2)CC1.O=C(O)C(F)(F)F
89

Repeat with CN1CC=C(c2c[nH]c3ccc(Br)cc23)CC1
88

Repeat with CN(C)c1cccc(CN2CC=C(c3c[nH]c4ccc(Cl)cc34)CC2)c1
93

Repeat with CCCCCCC(C)(C)c1cc(O)c2c3c(c(=O)oc2c1)CCN(Cc1ccccc1)C3.Cl
100

Repeat with Br.CC(Cc1ccc(CSC(C)C)cc1)NCC(O)c1cccc(Cl)c1 (configuration not stated)
98

Repeat with CN1CCC(N(C)c2nccc(N3CCN(Cc4cncn4Cc4ccccc4)CC3)n2)CC1
100

Repeat with O=C(C=Cc1ccc(-c2ccccc2)cc1)NC1CCC(CN2CCC(c3c[nH]c4ccccc34)CC2)CC1 (configuration not stated)
100

Repeat with O=C(/C=C/c1ccc(F)c(C(F)(F)F)c1)N1CCC(CN2CCC(c3c[nH]c4ccccc34)CC2)CC1
98

Repeat with CC(Cc1ccc(OCc2ccccc2)cc1)NCC(O)c1cccc(Cl)c1 (configuration not stated)
99

Repeat with CS(=O)(=O)Nc1ccc2[nH]cc(C3CC4CCC(C3)N4CC3CCC(NC(=O)/C=C/c4ccc(Cl)c(Cl)c4)CC3)c2c1 (configuration not stated)
100

Repeat with CCN1CCC2(c3cccc(OC)c3)Cc3nc4ccccc4c(-c4ccccc4)c3CC2C1 (configuration not stated)
99

Repeat with CC[C@H]1CN2CC[C@H]1C[C@@H]2[C@@H](O)c1ccnc2ccc(OC)cc12.Cl
100

Repeat with CN(c1ccnc(Nc2ccc(CS(C)(=O)=O)cc2)n1)C1CCN(Cc2ccccc2)CC1
83

Repeat with CC[C@H]1CN2CC[C@@H]1C[C@H]2[C@H](O)c1cc(N2CCC(C)CC2)nc2ccc(OC)cc12
99

Repeat with O=C(NCc1ccc(S(=O)(=O)N2CCC(CN3CCC(c4c[nH]c5ccccc45)CC3)CC2)s1)c1ccccc1
92

Repeat with CCCCCc1cc(O)c2c(c1)OC(C)(C)CC2C1=CCN(Cc2cccnc2)CC1.Cl.O (configuration not stated)
97

Repeat with Cl.OC(CNC1CCCCCCC1)c1ccc(Cl)c(Cl)c1 (configuration not stated)
100

Repeat with CC(=O)Nc1ccc(OCCN(CC(F)(F)F)c2ccc(C#N)cc2C(F)(F)F)cc1
81

Repeat with COC(=O)/C=C/c1ccc(CC(C)NCC(O)c2cccc(C(F)(F)F)c2)cc1.Cl (configuration not stated)
97

Repeat with O=C(COc1ccc(Cl)cc1)N1CCC(CN2CCC(c3c[nH]c4ccccc34)CC2)CC1
89

Repeat with COc1ccc(-c2ccccc2)cc1NC(=S)NC1CCC(CN2CCC(c3c[nH]c4ccccc34)CC2)CC1 (configuration not stated)
100

Repeat with N#Cc1ccc(N(CCCO)Cc2ccccc2C(F)(F)F)cc1C(F)(F)F
91

Repeat with CCCCCC(C)C(C)c1cc(O)c2c3c(c(=O)oc2c1)CN(Cc1ccccc1)CC3.Cl (configuration not stated)
99

Repeat with C=C[C@H]1CN2CC[C@H]1C[C@H]2[C@H](O)c1cc(-c2ccc(Cl)cc2)nc2ccc(OC)cc12.Cl
99

Repeat with COc1ccc(C(=O)C2CC2CN2CC=C(c3c[nH]c4cccc(Br)c34)CC2)cc1.O=C(O)C(F)(F)F (configuration not stated)
88

Repeat with CC(Cc1ccc([N+](=O)[O-])cc1)NCC(O)c1cccc(C(F)(F)F)c1 (configuration not stated)
98

Repeat with CC[C@H]1CN2CC[C@H]1C[C@@H]2[C@@H](O)c1ccnc2ccccc12
98

Repeat with O=C(/C=C/c1ccc(Cl)c(Cl)c1)N1CCC(CN2CCC(c3c(-c4ccccc4)[nH]c4ccccc34)CC2)CC1
100

Repeat with CC[C@H]1CN2CC[C@H]1C[C@H]2[C@H](O)c1ccnc2ccc(O)cc12.Cl
99

Repeat with CNCCCCCCOc1ccc(CC(C)NCC(O)c2cccc(C(F)(F)F)c2)cc1.Cl (configuration not stated)
100

Repeat with CC1CN=C(Nc2ncc(Cl)cc2Cl)N1.Cl (configuration not stated)
99

Repeat with CC[C@H]1CN2CC[C@H]1C[C@H]2[C@H](O)c1cc(N2CCC3CCCCC3C2)nc2ccc(OC)cc12 (some centres not stated)
100

Repeat with CCCN(CCC)CCOC(=O)C(OCC)(c1ccccc1)c1ccccc1
97

Repeat with O=C(NC1CCC(CN2CCC(c3c[nH]c4ccccc34)CC2)CC1)c1cc2ccccc2o1 (configuration not stated)
94

Repeat with Cc1cc(NC(=O)[C@@H](Nc2ccc(C#N)c3ccccc23)C2CCCCC2)ccc1F.O=C(O)C(F)(F)F
95

Repeat with O=C(C=Cc1ccc(Br)cc1)NC1CCC(CN2CCC(c3c[nH]c4ccccc34)CC2)CC1 (configuration not stated)
100
